Data origin, for the record: PubChem BioAssay AID651821

# test-description: binders of r(CAG) RNA repeats, primary screen, biochemical, fluorescence (AID 651821);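 also: 0% = DMSO alone and 100% = 100 µM mitoxantrone as full dye displacement; higher means more dye released from RNA so lower well fluorescence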
# run-conditions: r(CAG) RNA repeat, TO-PRO-1 dye displacement fluorescence; at 3 µM
Among all 370,000 compounds or so, about 4,700 (1.3%) were called active.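 The calls were made as follows: active = inhibition above the plate cutoff, the mean of all test compounds on that plate plus 3 SD (cut at about 35% in these data); inactive = the rest.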 The list comes from a sample in which actives are over-represented; it also holds close analogues and randomly drawn compounds.
Respond using exactly one of the listed classes: class 1 for active, class 0 for inactive

# compound, cat
rows = [
    ("COc1ccc(C(C)(NC(C)=O)c2nc(-c3ccc(S(C)(=O)=O)cc3)cs2)cc1 (stereo not given)", "class 0"),
    ("COC(=O)[C@H](C(C)C)N(CCCc1cn(Cc2ccccc2)nn1)S(=O)(=O)c1ccc(F)cc1Br", "class 0"),
    ("CC(C)CC(=O)N/C(N)=N/c1nc2ccccc2s1", "class 0"),
    ("CCCn1c(C)cc(-c2csc(NC(=O)CCc3nc4ccccc4c(=O)[nH]3)n2)c1C", "class 0"),
    ("Cc1ccc(C)c(Cn2nnc3c(=O)[nH]c(C(=O)Nc4ccc(F)cc4)nc32)c1", "class 1"),
    ("Cc1cc(N2CCN(C(=O)OC(C)(C)C)C[C@H]2C)ccc1N1CCN(Cc2ccccc2)[C@H](C)C1", "class 0"),
]

Field: outcome | Entry: Cc1ccc(C(=O)Nc2c(C#N)c(C)c(C)n2Cc2ccccc2)cc1
class 0

Field: outcome | Entry: CN[C@H]1C[C@H]2c3[nH]c4c(-c5ccccc5)cccc4c3CCN2C(=O)[C@H]1[C@H](C)O
class 0

Field: outcome | Entry: CCN(CC)CCn1c2c(c(SCC(=O)Nc3nc4ccccc4s3)nc1=O)CCCC2
class 0

Field: outcome | Entry: CC(=O)Nc1ccc(C(=O)Nc2nc(-c3cc(C)n(Cc4ccccc4)c3C)cs2)cc1
class 1

Field: outcome | Entry: CCOc1ccc(-n2c(SCC(=O)Nc3cc(C)c(NC(=O)c4ccccc4)cc3OC)nnc2-c2cccc(Cl)c2)cc1
class 0

Field: outcome | Entry: Cc1ccc(NC(=O)N2c3ccccc3SC2c2ccco2)c(C)c1 (stereo not given)
class 0

Field: outcome | Entry: CC(=O)Nc1ccc(S(=O)(=O)Nc2nc(-c3ccc(C(C)(C)C)cc3)cs2)cc1
class 1
